Origin of values: patent US20250092109A1

- target.under.test: T1, IL-2 (UniProt P60568 21-153)
- T1 construct: also called interleukin 2
- assay.details: SPR
endpoint.label: kon (M⁻¹ s⁻¹)
Quick reminder: number only, in M⁻¹ s⁻¹, skip the unit.

The cases that follow already have their kon on record.
binder	endpoint.label	value.units	result
VHH6 (VHH, In the functional rows it stood as the masking moiety of construct C8; also called Q44G) VHH: EVQLVESGGGLVQPGGSLRLSCAASGSIFSINVMGWYRQAPGKGRELVAAISSGGSTNYADSVKGRFTISRDNAKNTVYLQMNSLKPEDTAVYYCMYASSWYEDETDYWGQGTQVTVSS	kon	M⁻¹ s⁻¹	476000
VHH26 (VHH, In the functional rows it stood as the masking moiety of construct C10; also called I31S, M96A, W101Y) VHH: EVQLVESGGGLVQPGGSLRLSCAASGSIFSSNVMGWYRQAPGKQRELVAAISSGGSTNYADSVKGRFTISRDNAKNTVYLQMNSLKPEDTAVYYCAYASSYYEDETDYWGQGTQVTVSS	kon	M⁻¹ s⁻¹	3.15e+06

Problem: What value of kon has been recorded for this entry: VHH1 (VHH, In the functional rows it stood as the masking moiety of constructs C7, C2, C4 and C6, fused to an Fc chain; also called Parental; parental anti-IL-2) VHH: EVQLVESGGGLVQPGGSLRLSCAASGSIFSINVMGWYRQAPGKQRELVAAISSGGSTNYADSVKGRFTISRDNAKNTVYLQMNSLKPEDTAVYYCMYASSWYEDETDYWGQGTQVTVSS
Solution: 546000

Problem: What value of kon has been recorded for this entry: VHH7 (VHH, In the functional rows it stood as the masking moiety of construct C9; also called Q44G, R45L) VHH: EVQLVESGGGLVQPGGSLRLSCAASGSIFSINVMGWYRQAPGKGLELVAAISSGGSTNYADSVKGRFTISRDNAKNTVYLQMNSLKPEDTAVYYCMYASSWYEDETDYWGQGTQVTVSS
Solution: 595000

Problem: What value of kon has been recorded for this entry: VHH36 (VHH, In the functional rows it stood as the masking moiety of construct C11; also called I31S, Q44G, R45L, M96A, W101Y) VHH: EVQLVESGGGLVQPGGSLRLSCAASGSIFSSNVMGWYRQAPGKGLELVAAISSGGSTNYADSVKGRFTISRDNAKNTVYLQMNSLKPEDTAVYYCAYASSYYEDETDYWGQGTQVTVSS
Solution: 594000
